substrate: NC(=O)C[C@H](N)C(=O)O; assay: Nessler reagent assay of ammonia, Michaelis-Menten fit; type: biochemical, Thermococcus litoralis; details: pH 10, 80 °C, 0.5-18.0 mM L-asparagine, free enzyme
PROPERTY NAME: kcat (s⁻¹)
Kindly provide the numeric value in s⁻¹ only, without the unit symbol.

PROTEIN: L-asparaginase Tli10209 (Thermococcus litoralis DSM 5473; D50G) (protein) MSEKRKLERRGAEDMKRILIIGTGGTIASAKTDAGFKSVLTIDEILEKAGIKLKNGYEIDTRNILNIDSTLIQPEDWERIAKEVYKALEDYDGIVITHGTDTLAYTASMLTFMIRGINKPVVLTGSMRPVTEEESDAPRNLKAAIRFAMEDVSGIFVAFMDKIMLGCRTSKIRALGLNAFMSINYPDVAYVKGEEVIYNLPQKRFKPKGEPVLDTKYEPRVVFIRLTPGLDGNAIDALVKAGYRGIVLEGYGAGGIPYRKRDILSKIREITPQIPVVMTTQALYDGVDLTKYEVGRKALEAGIIPAKDMTKETTITKLMWALGHTKNVEEVKEIMHTNYADEIEG
PROPERTY NAME: kcat
QUANTITATIVE READOUT: 3890

For L-asparaginase Tli10209 (Thermococcus litoralis DSM 5473; K48L/T70A) (protein) MSEKRKLERRGAEDMKRILIIGTGGTIASAKTDAGFKSVLTIDEILELADIKLKNGYEIDTRNILNIDSALIQPEDWERIAKEVYKALEDYDGIVITHGTDTLAYTASMLTFMIRGINKPVVLTGSMRPVTEEESDAPRNLKAAIRFAMEDVSGIFVAFMDKIMLGCRTSKIRALGLNAFMSINYPDVAYVKGEEVIYNLPQKRFKPKGEPVLDTKYEPRVVFIRLTPGLDGNAIDALVKAGYRGIVLEGYGAGGIPYRKRDILSKIREITPQIPVVMTTQALYDGVDLTKYEVGRKALEAGIIPAKDMTKETTITKLMWALGHTKNVEEVKEIMHTNYADEIEG , what is its reported kcat? 2760

For L-asparaginase Tli10209 (Thermococcus litoralis DSM 5473; F36Y) (protein) MSEKRKLERRGAEDMKRILIIGTGGTIASAKTDAGYKSVLTIDEILEKADIKLKNGYEIDTRNILNIDSTLIQPEDWERIAKEVYKALEDYDGIVITHGTDTLAYTASMLTFMIRGINKPVVLTGSMRPVTEEESDAPRNLKAAIRFAMEDVSGIFVAFMDKIMLGCRTSKIRALGLNAFMSINYPDVAYVKGEEVIYNLPQKRFKPKGEPVLDTKYEPRVVFIRLTPGLDGNAIDALVKAGYRGIVLEGYGAGGIPYRKRDILSKIREITPQIPVVMTTQALYDGVDLTKYEVGRKALEAGIIPAKDMTKETTITKLMWALGHTKNVEEVKEIMHTNYADEIEG , what is its reported kcat? 2500

For L-asparaginase Tli10209 (Thermococcus litoralis DSM 5473; K48L) (protein) MSEKRKLERRGAEDMKRILIIGTGGTIASAKTDAGFKSVLTIDEILELADIKLKNGYEIDTRNILNIDSTLIQPEDWERIAKEVYKALEDYDGIVITHGTDTLAYTASMLTFMIRGINKPVVLTGSMRPVTEEESDAPRNLKAAIRFAMEDVSGIFVAFMDKIMLGCRTSKIRALGLNAFMSINYPDVAYVKGEEVIYNLPQKRFKPKGEPVLDTKYEPRVVFIRLTPGLDGNAIDALVKAGYRGIVLEGYGAGGIPYRKRDILSKIREITPQIPVVMTTQALYDGVDLTKYEVGRKALEAGIIPAKDMTKETTITKLMWALGHTKNVEEVKEIMHTNYADEIEG , what is its reported kcat? 5080
